Data origin: ChEMBL document CHEMBL4689842

Population Tubulin-Different-Phenotype (%) for assorted molecules
- System: HEK-293T
- Assay explanation: Multiplex assay against HEK293T;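 note: share of the cells with healthy nuclei that show this phenotype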
- Assay type: toxicity, cell-based
- Condition: human, 24 h, 1 µM, compound concentration 1 uM, replicate 1
Unit % implied. Number only.

Below, each entry is followed by its recorded Population Tubulin-Different-Phenotype (%) result.
COc1cc2ncnc(Nc3ccc(F)c(Cl)c3)c2cc1NC(=O)/C=C/CN1CCCCC1 [DACOMITINIB ANHYDROUS] | 73
Cc1cc(C)c(S(=O)(=O)N(Cc2ccc(-c3cccc(S(C)(=O)=O)c3)cc2)Cc2ccc(C(F)(F)F)o2)c(C)c1 | 49
CCOc1cc2ncc(C#N)c(Nc3ccc(OCc4ccccn4)c(Cl)c3)c2cc1NC(=O)/C=C/CN(C)C | 61
O=C(Nc1ccc(-c2ccnc(Nc3ccc(N4CCOCC4)cc3)n2)cc1)[C@@H]1CCCN1 | 51
CCn1cc(-c2ccnc3[nH]c(-c4cccc(CN(C)C)c4)cc23)c(-c2ccc(NC(=O)N(C)C)cc2)n1 | 37

Requested read-out: Population Tubulin-Different-Phenotype (%). Entry: CCOC(=O)c1c(C)[nH]c2ccc3c(c12)CN1CCc2cc(OC)ccc2C1O3 (stereo not drawn)
80

Requested read-out: Population Tubulin-Different-Phenotype (%). Entry: Cc1ccc(C(=O)Nc2cccc(C(F)(F)F)c2)cc1Nc1nc(-c2cccnc2)nc2c1cnn2C
90

Requested read-out: Population Tubulin-Different-Phenotype (%). Entry: CCOc1cc(C(=O)N2CCC(N3CCN(C)CC3)CC2)ccc1Nc1ncc2c(n1)N(C1CCCC1)c1ccccc1C(=O)N2C
83

Requested read-out: Population Tubulin-Different-Phenotype (%). Entry: C=CCn1c(=O)c2cnc(Nc3ccc(N4CCN(C)CC4)cc3)nc2n1-c1cccc(C(C)(C)O)n1
6

Requested read-out: Population Tubulin-Different-Phenotype (%). Entry: CCCn1c(=O)c2[nH]c(-c3cnn(Cc4cccc(C(F)(F)F)c4)c3)nc2n(CC)c1=O
66
